B1: tRNA (parent)
chain: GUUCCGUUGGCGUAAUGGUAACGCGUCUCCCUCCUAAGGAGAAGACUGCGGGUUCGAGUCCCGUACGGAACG

Variants of: B1
Experiment Description: yeast fitness relative to wild type (ratio to wild type); higher = fitter; tRNA-Arg(CCU), competitive growth, 37 C, YPD
Variants at the floor of the assay were thinned out.
yeast fitness reference
Kindly provide the number alone.

{"columns": ["Variant Description", "yeast fitness"],
 "data": [
  ["U7C U26C", 0.866],
  ["U13A C27U A69U", 0.864],
  ["G10C C22A C24G U53A", 0.547],
  ["U16C C27G C29U U54C", 0.568],
  ["G10C C46A", 0.626],
  ["A15C C29U G39C A42U G50U G51C A65U", 0.527]
]}

Report measured yeast fitness; entry is U7G C30U G38A C60U
0.582

Report measured yeast fitness; entry is C4U A15G
0.997
